- Method description: qHTS Assay for Identifying Gametocytocidal Compounds (AID 743244);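 also: % is scaled to controls: 0 for no effect and ±100 for the full control effect; actives lower the fluorescent signal which means gametocytes are killed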
- Condition details: P. falciparum 3D7 stage III-V gametocytes, alamarBlue, 72 h; stronger effect = lower value
Results filed as inconclusive are left out. Active and inactive are the calls of the source. Calls follow the shape of the dose curve; as a rule, active = well fitted curve in the direction sought with a large enough effect; inconclusive = small, poorly fitted or top-dose-only effect, or another doubt; inactive = no such curve, though single readings can be large or run the other way.
Quantity measured: max response

- O=C(NCCS(=O)(=O)c1ccc(C(F)(F)F)cn1)c1ccc(Cl)cc1: 12.1% (inactive)
- CC(=O)Nc1sc2c(c1-c1nc3ccccc3s1)CNC2: 20.9% (inactive)
- CC(C)=CCCC(C)=CCCC(C)=CCSc1ccccc1C(=O)O: 2.41% (inactive)
- COc1cc2nccc(Oc3ccc(NC(=O)C4(C(=O)Nc5ccc(F)cc5)CC4)cc3)c2cc1OC: 4.76% (inactive)
- CN1c2cc(O)c(N=NC(N)=O)cc2CC1S(=O)(=O)O (stereo not drawn): 13% (inactive)
- C=C1C(=CC=C2CCCC3(C)[C@@H]([C@H](C)C=CC=CC(O)(CC)CC)CC[C@@H]23)C[C@@H](O)C[C@@H]1O (stereo partly drawn): -8.25% (inactive)
- Nc1ccccc1NC(=O)c1ccc(CNC(=O)OCc2cccnc2)cc1: -2.71% (inactive)
- COc1ccc2c(c1)CC[C@@H](CN(C)CC(=O)O)[C@H]2c1ccccc1: 4.46% (inactive)
- O=C(O)[C@H](Cc1c[nH]c2ccccc12)N1C(=O)c2ccccc2C1=O: 33.4% (inactive)
- COc1ccc(OC)c(-c2nnc3ccc(-c4ccc(OC)c(O[C@@H]5CCOC5)c4)nn23)c1: -15.7% (inactive)
- O=C(O)CO.[NH2-].[NH2-].[Pt+2]: -5.78% (inactive)
- COc1ccc(C=Cc2cc(OC)c(OC)c(OC)c2)cc1O: 18.2% (inactive)
- Cc1cnc(Nc2ccc(F)cc2Cl)nc1-c1c[nH]c(C(=O)N[C@H](CO)c2cccc(Cl)c2)c1: -28.2% (inactive)

The values you see were collected from PubChem BioAssay (NCATS).
